Molecular target: HCV NS5B (Hepatitis C virus genotype 1b)
Construct: The protein was expressed with an 18 amino acid C-terminal truncation to enhance the solubility; made in house; host or cells: E. coli BL21(DE3)
Sequence (Q9WMX2 2420-2992): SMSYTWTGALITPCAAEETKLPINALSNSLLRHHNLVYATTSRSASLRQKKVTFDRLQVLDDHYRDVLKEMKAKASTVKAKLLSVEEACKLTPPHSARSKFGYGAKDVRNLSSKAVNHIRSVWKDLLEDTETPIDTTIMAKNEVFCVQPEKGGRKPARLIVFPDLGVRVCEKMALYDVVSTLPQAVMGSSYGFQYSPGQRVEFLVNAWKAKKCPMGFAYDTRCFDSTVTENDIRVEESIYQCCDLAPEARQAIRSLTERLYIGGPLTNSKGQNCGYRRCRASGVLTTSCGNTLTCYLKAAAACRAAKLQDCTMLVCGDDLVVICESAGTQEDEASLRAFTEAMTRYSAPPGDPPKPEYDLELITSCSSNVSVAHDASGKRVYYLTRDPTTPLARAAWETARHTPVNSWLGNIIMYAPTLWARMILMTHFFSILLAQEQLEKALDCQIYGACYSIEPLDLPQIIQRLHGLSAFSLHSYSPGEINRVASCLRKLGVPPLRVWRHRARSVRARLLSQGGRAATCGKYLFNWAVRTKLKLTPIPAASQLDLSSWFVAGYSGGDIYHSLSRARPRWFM
Experiment: HCV NS5B RdRp enzyme assay
Assay type: biochemical
Conditions: Table 2; HCV NS5B RdRp genotype 1b
RECORDED METRIC: IC50 (nM)
Answers are plain numbers, in nM.

Below are worked cases with known answers.
Would you kindly share the measured IC50 for COc1ccc2c(c1)[C@@H]1C[C@]1(C(=O)N1CC34COCC3(C1)N(C(C)=O)C4)Cn1c-2c(C2CCCCC2)c2ccc(C(=O)NS(=O)(=O)C(C)C)cc21 (stereo partly shown) [drawing 109] ? 3.1

Param item = COc1ccc2c(c1)[C@@H]1C[C@]1(C(=O)N1CC34CCC3(CN(C)C4)C1)Cn1c-2c(C2CCCCC2)c2ccc(C(=O)NS(=O)(=O)C(C)C)cc21 (stereo partly shown) [drawing 108] ; retrieve measured IC50. 3.5

// query IC50 value for entry CCOCCN1CC23COCC2(C1)CN(C(=O)[C@]12C[C@H]1c1cc(OC)ccc1-c1c(C4CCCCC4)c4ccc(C(=O)NS(=O)(=O)C(C)C)cc4n1C2)C3 (stereo partly shown) [drawing 112] 1.9

Would you mind listing IC50 for each of the following compounds?
1. COc1ccc2c(c1)C1CC1(C(=O)N1CC34CNCC3(CN(C)C4)C1)Cn1c-2c(C2CCCCC2)c2ccc(C(=O)NS(=O)(=O)C3CC3)cc21 (stereo not shown)
2. COc1ccc2c(c1)[C@@H]1C[C@]1(C(=O)N1CC34COCC3(C1)N(C(C)=O)C4)Cn1c-2c(C2CCCCC2)c2ccc(C(=O)NS(=O)(=O)C(C)C)cc21 (stereo partly shown) [drawing 110]
3. COc1ccc2c(c1)C1CC1(C(=O)N1CC34COCC3(CN(C)C4)C1)Cn1c-2c(C2CCCCC2)c2ccc(C(=O)NS(=O)(=O)N(C)C)cc21 (stereo not shown) [drawing 106]

7.8
2.4
8.79

----------
Tested on: HCV replicon
Assay: HCV replicon FRET / luciferase assay (NeoLuc)
Assay type: cell-based, HCV genotype 1b
Settings: Hepatitis C virus, genotype 1b, read-out: NeoLuc EC50, Table 1; HCV replicon cells, genotype 1b
Source text: FRET Assay Preparation. To perform the HCV FRET screening assay, 96-well cell culture plates were used. The FRET peptide (Anaspec, Inc.) (Taliani et al., Anal. Biochem. 1996, 240, 60-67) contains a fluorescence donor, EDANS, near one end of the peptide and an acceptor, DABCYL, near the other end. […] Assays. […] The plate was then placed into the Cytoflour 4000 instrument which had been set to 340 excite/490 emission, automatic mode for 20 cycles and the plate read in a kinetic mode. […]
pEC50: −log10 of the molar value.
Please respond with reported pEC50 for every item in the list.

Value lookup for pEC50; key = C=C(C)S(=O)(=O)NC(=O)c1ccc2c(C3CCCCC3)c3n(c2c1)C[C@@]1(C(=O)N2C[C@@]4(COC)CNC[C@@]4(COC)C2)C[C@H]1c1cc(OC)ccc1-3 6.00 to 6.30

Could you share which pEC50 value was measured for COC[C@@]12CN(C)C[C@]1(COC)CN(C(=O)C13CC1c1cc(OC)ccc1-c1c(C4CCCCC4)c4ccc(C(=O)NS(=O)(=O)C(C)C)cc4n1C3)C2 (stereo partly shown) ? 6.30 to 8.72

What pEC50 value was documented for this compound, COc1ccc2c(c1)C=C(C(=O)N1CC34COCC3(CN(C)C4)C1)Cn1c-2c(C2CCCCC2)c2ccc(C(=O)NS(=O)(=O)N(C)C)cc21 (stereo not shown) ? 6.30 to 8.72

Continuing:
Bench note: what pEC50 did CCOCCN1CC23COCC2(C1)CN(C(=O)[C@]12C[C@H]1c1cc(OC)ccc1-c1c(C4CCCCC4)c4ccc(C(=O)NS(=O)(=O)C(C)C)cc4n1C2)C3 (stereo partly shown) [drawing 101] show? 6.30 to 8.72
